system-name: human PPARδ (137–441aa) ligand binding domain (Homo sapiens)
Construct: δ (137–441aa); expressed in transfected cells; host or cells: COS-7
Sequence (Q03181 137-441): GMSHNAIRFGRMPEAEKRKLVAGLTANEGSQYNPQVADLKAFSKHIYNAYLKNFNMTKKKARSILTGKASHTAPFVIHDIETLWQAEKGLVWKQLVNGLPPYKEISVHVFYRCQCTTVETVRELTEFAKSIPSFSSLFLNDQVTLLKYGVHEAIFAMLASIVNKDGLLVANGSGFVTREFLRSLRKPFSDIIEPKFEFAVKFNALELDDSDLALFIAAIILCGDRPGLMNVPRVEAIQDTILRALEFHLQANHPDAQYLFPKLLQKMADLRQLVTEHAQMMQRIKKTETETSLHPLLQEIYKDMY
assay-name: PPAR transfection (Gal4-LBD luciferase reporter) assay, hPPARδ
Format: cell-based
details: transfected COS-7 cells, 16 hours, luciferase activity; read-out: hPPAR; EC50 δ (agonist activity)
pEC50: −log10 of the molar value.
assay-endpoint: pEC50

Known results for compounds:
>>> experimental_result("CCC(Oc1cccc(CCN(CCOc2ccc(OC)cc2)c2nc3ccccc3o2)c1)C(=O)O (stereo not shown)")
5.74
>>> experimental_result("CCC(Oc1cccc(CCN(CCOc2ccc(OC)cc2)c2nc3cc(OC)ccc3o2)c1)C(=O)O (stereo not shown)")
5.70

P: CCC(Oc1cccc(CN(CCOc2ccccc2)c2nc3ccccc3o2)c1)C(=O)O (stereo not shown)
Q: CC[C@@H](Oc1cccc(CN(CCCOc2ccc(F)cc2)c2nc3ccccc3o2)c1)C(=O)O
[ask] Looking at P and Q , which one comes out lower in pEC50 terms? Give the chosen item's label as your response.
[reply] P
